system: SKBR3-P; experiment: area under growth-rate inhibition curve (AUC GRI) (dimensionless (GR-based AUC)); higher = less growth inhibition; conditions: exposure time: 72 h; concentrations: 0.1, 1, 10 uM
Where a name gives a salt, the structure may show the parent alone.
# area under growth-rate inhibition curve per record follows

{"Compound": "COc1ccc(C[C@@H]2c3cc(OC)c(OC)cc3CC[N@+]2(C)CCC(=O)OCCCCCOC(=O)CC[N@@+]2(C)CCc3cc(OC)c(OC)cc3[C@H]2Cc2ccc(OC)c(OC)c2)cc1OC.O=S(=O)([O-])c1ccccc1.O=S(=O)([O-])c1ccccc1 [Cisatracurium Besylate]", "Test target": "SKBR3-P", "area under growth-rate inhibition curve": 0.961}
{"Compound": "Cc1c(C(=O)NN2CCCCC2)nn(-c2ccc(Cl)cc2Cl)c1-c1ccc(Cl)cc1", "Test target": "SKBR3-P", "area under growth-rate inhibition curve": 0.953}
{"Compound": "NC(=O)OCC(COC(N)=O)c1ccccc1 [Felbamate]", "Test target": "SKBR3-P", "area under growth-rate inhibition curve": 1.03}
{"Compound": "CCCN1C[C@H](CSC)C[C@@H]2c3cccc4[nH]cc(c34)C[C@H]21.CS(=O)(=O)O [Pergolide mesylate]", "Test target": "SKBR3-P", "area under growth-rate inhibition curve": 0.978}
{"Compound": "CN(C)C(=O)Oc1ccc[n+](C)c1.[Br-] [Pyridostigmine Bromide]", "Test target": "SKBR3-P", "area under growth-rate inhibition curve": 0.997}
{"Compound": "C[NH+]1CCC[C@@H]1CCO[C@](C)(c1ccccc1)c1ccc(Cl)cc1.O=C([O-])/C=C/C(=O)O [Clemastine Fumarate]", "Test target": "SKBR3-P", "area under growth-rate inhibition curve": 0.898}
{"Compound": "CN(C)CCc1c[nH]c2ccc(C[C@H]3COC(=O)N3)cc12", "Test target": "SKBR3-P", "area under growth-rate inhibition curve": 1.03}
{"Compound": "CN1CCCCC1Cn1cc(C(=O)c2cc([N+](=O)[O-])ccc2I)c2ccccc21 (stereo unspecified)", "Test target": "SKBR3-P", "area under growth-rate inhibition curve": 0.998}
{"Compound": "CNCC(=O)c1ccc(O)c(O)c1.Cl [Adrenalone HCl]", "Test target": "SKBR3-P", "area under growth-rate inhibition curve": 1.03}
{"Compound": "CCC(=O)NCC[C@@H]1CCc2ccc3c(c21)CCO3", "Test target": "SKBR3-P", "area under growth-rate inhibition curve": 1.03}
{"Compound": "NC(N)=NCCCC(N)C(=O)NC(CCCN=C(N)N)C(=O)N1CCCC1C(=O)N1CC(O)CC1C(=O)NCC(=O)NC(Cc1cccs1)C(=O)NC(CO)C(=O)N1Cc2ccccc2CC1C(=O)N1C(C(=O)NC(CCCN=C(N)N)C(=O)O)CC2CCCCC21 (stereo unspecified)", "Test target": "SKBR3-P", "area under growth-rate inhibition curve": 1.04}
{"Compound": "CC(=O)OC1CC2CCC3C(CCC4(C)C3CC([N+]3(C)CCCCC3)C4OC(C)=O)C2(C)CC1[N+]1(C)CCCCC1.[Br-].[Br-] (stereo unspecified) [Pancuronium dibromide]", "Test target": "SKBR3-P", "area under growth-rate inhibition curve": 0.989}
{"Compound": "COc1ccc(CN(CCN(C)C)c2ccccn2)cc1.O=C(O)/C=C\\C(=O)O [Mepyramine maleate]", "Test target": "SKBR3-P", "area under growth-rate inhibition curve": 1.05}
{"Compound": "CC(NC(C)(C)C)C(=O)c1cccc(Cl)c1 (stereo unspecified) [Amfebutamone HCl]", "Test target": "SKBR3-P", "area under growth-rate inhibition curve": 1.01}
{"Compound": "COc1cc(NC(=O)c2ccccn2)ccc1Cl", "Test target": "SKBR3-P", "area under growth-rate inhibition curve": 0.979}
{"Compound": "Br.Cc1ccc(Sc2ccccc2N2CCNCC2)c(C)c1", "Test target": "SKBR3-P", "area under growth-rate inhibition curve": 0.872}

Provenance of the data: the supplement of paper PMC9763283
